This listing pairs compounds with measured pIC50.
- MEASURED_TARGET: ROCK1 (Homo sapiens (Human), UniProt Q13464)
- Sequence (Q13464 whole entry, species assumed): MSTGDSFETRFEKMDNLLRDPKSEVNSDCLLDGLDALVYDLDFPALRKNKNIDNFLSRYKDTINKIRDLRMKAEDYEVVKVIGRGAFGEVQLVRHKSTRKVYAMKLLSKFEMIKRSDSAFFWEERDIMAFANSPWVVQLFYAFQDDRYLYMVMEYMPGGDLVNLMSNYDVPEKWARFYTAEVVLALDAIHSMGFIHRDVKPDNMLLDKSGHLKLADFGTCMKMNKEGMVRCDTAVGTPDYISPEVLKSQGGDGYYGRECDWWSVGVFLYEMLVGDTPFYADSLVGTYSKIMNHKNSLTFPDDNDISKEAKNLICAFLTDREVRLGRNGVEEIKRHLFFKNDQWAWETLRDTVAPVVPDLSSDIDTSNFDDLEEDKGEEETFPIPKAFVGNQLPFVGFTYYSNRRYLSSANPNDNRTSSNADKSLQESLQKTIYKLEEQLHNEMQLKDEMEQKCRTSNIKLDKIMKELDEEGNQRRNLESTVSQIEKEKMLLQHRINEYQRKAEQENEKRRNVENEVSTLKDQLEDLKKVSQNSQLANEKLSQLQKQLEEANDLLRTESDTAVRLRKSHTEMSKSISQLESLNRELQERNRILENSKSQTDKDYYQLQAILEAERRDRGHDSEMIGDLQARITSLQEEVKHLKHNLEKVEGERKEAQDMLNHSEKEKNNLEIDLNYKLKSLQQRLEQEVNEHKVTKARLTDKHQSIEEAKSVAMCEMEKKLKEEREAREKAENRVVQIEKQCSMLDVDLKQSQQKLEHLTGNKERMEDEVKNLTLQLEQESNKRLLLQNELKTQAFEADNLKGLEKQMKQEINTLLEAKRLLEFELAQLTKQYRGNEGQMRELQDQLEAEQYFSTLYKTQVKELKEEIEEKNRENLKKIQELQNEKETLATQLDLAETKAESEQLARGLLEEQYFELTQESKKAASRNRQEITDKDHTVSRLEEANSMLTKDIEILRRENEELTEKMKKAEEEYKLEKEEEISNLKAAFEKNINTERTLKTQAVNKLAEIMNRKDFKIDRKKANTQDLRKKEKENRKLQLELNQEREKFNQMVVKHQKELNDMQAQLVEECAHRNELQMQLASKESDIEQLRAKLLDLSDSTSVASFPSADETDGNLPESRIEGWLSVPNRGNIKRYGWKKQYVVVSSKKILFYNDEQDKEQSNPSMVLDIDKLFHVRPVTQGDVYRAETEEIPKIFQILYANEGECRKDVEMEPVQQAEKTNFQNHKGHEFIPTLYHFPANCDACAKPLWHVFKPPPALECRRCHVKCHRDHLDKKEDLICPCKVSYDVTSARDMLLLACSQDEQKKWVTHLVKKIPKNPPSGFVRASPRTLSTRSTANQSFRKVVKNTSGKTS
- METHOD_NOTES: ROCK assay (LABCHIP peptide phosphorylation), ROCK1
- Assay type: biochemical
- ASSAY_CONDITIONS: 5 μM ATP, 1.5 μM peptide substrate; read-out: ROCK1 IC50
pIC50: −log10 of the molar value.

COMPOUND: O=C(Nc1ccc(-c2n[nH]c(=O)c3ccccc23)cc1)C1CC(c2ccccc2)=NO1 (centres unmarked) [Example 196]
pIC50: 4.30 to 6.00

COMPOUND: Cc1cc(NC(=O)Cc2ccc(-c3n[nH]c(=O)c4ccccc34)cc2)on1 [Example 26]
pIC50: 4.30 to 6.00

COMPOUND: CC(C(=O)N1Cc2ccccc2C1)c1ccc(-c2n[nH]c(=O)c3ccccc23)cc1 (centres unmarked) [Example 43]
pIC50: 4.30 to 6.00

COMPOUND: Cn1nc(C(F)(F)F)cc1C(=O)Nc1ccc(-c2n[nH]c(=O)c3ccccc23)cc1 [Example 408]
pIC50: 6.00 to 7.00

COMPOUND: O=C(Cc1ccc(-c2n[nH]c(=O)c3ccccc23)cc1)Nc1nncs1 [Example 29]
pIC50: 4.30 to 6.00

COMPOUND: CCn1cncc1C(=O)Nc1ccc(-c2n[nH]c(=O)c3ccccc23)cc1 [Example 233]
pIC50: 6.00 to 7.00

COMPOUND: CC(C)(O)Cn1nc(C(=O)Nc2ccc(-c3n[nH]c(=O)c4ccccc34)c(Cl)c2)c2ccccc21 [Example 315]
pIC50: 7.00 to 10.00

COMPOUND: CC(C)(O)CCn1nc(C(=O)Nc2ccc(-c3n[nH]c(=O)c4ccccc34)cc2)c2ccccc21 [Example 333]
pIC50: 7.00 to 10.00

----------
This listing pairs molecules with measured pIC50.
- MEASURED_TARGET: ROCK2 (Homo sapiens (Human), UniProt O75116)
- Sequence (O75116 whole entry, species assumed): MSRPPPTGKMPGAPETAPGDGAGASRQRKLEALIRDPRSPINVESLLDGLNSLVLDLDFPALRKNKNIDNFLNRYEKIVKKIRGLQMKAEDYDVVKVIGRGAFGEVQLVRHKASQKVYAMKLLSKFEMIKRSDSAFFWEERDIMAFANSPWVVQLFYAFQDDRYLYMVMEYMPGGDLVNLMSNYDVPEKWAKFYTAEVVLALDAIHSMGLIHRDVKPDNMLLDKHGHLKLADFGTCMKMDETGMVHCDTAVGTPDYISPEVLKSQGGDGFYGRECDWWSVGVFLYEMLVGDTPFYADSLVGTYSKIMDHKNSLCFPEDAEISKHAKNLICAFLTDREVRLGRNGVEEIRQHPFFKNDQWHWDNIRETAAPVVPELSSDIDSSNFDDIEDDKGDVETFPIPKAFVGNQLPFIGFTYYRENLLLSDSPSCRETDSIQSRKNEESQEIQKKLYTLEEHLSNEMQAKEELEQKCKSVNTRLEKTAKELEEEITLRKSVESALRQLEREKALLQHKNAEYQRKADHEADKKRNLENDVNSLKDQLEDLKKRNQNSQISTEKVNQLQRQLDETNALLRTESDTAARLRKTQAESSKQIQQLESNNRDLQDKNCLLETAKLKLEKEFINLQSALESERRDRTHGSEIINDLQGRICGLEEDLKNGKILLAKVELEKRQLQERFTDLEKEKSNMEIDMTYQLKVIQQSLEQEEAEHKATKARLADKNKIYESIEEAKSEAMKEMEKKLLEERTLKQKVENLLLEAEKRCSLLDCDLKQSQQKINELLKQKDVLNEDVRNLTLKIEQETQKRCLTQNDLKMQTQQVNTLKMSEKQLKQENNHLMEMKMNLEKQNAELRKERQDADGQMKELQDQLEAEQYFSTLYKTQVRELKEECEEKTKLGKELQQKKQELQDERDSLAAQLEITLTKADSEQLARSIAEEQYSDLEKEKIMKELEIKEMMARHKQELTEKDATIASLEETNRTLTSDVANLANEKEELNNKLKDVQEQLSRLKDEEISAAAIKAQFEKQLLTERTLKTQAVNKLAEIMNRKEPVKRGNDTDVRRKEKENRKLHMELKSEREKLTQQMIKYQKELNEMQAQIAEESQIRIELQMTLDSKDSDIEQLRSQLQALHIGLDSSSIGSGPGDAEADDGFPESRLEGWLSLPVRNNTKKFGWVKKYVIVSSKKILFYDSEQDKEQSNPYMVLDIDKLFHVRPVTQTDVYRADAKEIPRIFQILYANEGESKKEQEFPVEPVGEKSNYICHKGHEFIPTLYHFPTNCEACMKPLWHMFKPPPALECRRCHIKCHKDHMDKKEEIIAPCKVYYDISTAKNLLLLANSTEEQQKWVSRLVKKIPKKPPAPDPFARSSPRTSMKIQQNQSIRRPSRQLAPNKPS
- METHOD_NOTES: ROCK assay (LABCHIP peptide phosphorylation), ROCK2
- Format: biochemical
- ASSAY_CONDITIONS: 5 μM ATP, 1.5 μM peptide substrate
pIC50: −log10 of the molar value.

RECORD_SMILES: O=C(Nc1ccc(-c2n[nH]c(=O)c3ccccc23)cc1)c1cnn2cc(OCCN3CCOCC3)ccc12
MEASURED_TARGET: ROCK2 (Homo sapiens (Human), UniProt O75116)
pIC50: 7.00 to 10.00
--
RECORD_SMILES: Cn1nc(C(=O)Nc2ccc(-c3n[nH]c(=O)c4ccccc34)cc2)cc1C(C)(C)C
MEASURED_TARGET: ROCK2 (Homo sapiens (Human), UniProt O75116)
pIC50: 7.00 to 10.00
--
RECORD_SMILES: O=C(Cc1ccc(-c2n[nH]c(=O)c3ccccc23)cc1)N1CCc2cc(OC(F)(F)F)cc(Br)c21
MEASURED_TARGET: ROCK2 (Homo sapiens (Human), UniProt O75116)
pIC50: 6.00 to 7.00
--
RECORD_SMILES: O=C(Cc1ccc(-c2n[nH]c(=O)c3ccccc23)cc1)Nc1nccs1
MEASURED_TARGET: ROCK2 (Homo sapiens (Human), UniProt O75116)
pIC50: 6.00 to 7.00
--
RECORD_SMILES: O=C(Cc1ccc(-c2n[nH]c(=O)c3ccccc23)cc1)N1CCc2ccc(OCc3ccncc3)cc21
MEASURED_TARGET: ROCK2 (Homo sapiens (Human), UniProt O75116)
pIC50: 7.00 to 10.00
--
RECORD_SMILES: Cc1nc(N2CCCc3ccccc32)sc1C(=O)Nc1ccc(-c2n[nH]c(=O)c3ccccc23)cc1
MEASURED_TARGET: ROCK2 (Homo sapiens (Human), UniProt O75116)
pIC50: 7.00 to 10.00
--
RECORD_SMILES: COc1ccc2c(c1)CN(C(=O)Cc1ccc(-c3n[nH]c(=O)c4ccccc34)cc1)C2
MEASURED_TARGET: ROCK2 (Homo sapiens (Human), UniProt O75116)
pIC50: 7.00 to 10.00
--
RECORD_SMILES: CCOc1ccc2c(c1)cc(C(=O)Nc1ccc(-c3n[nH]c(=O)c4ccccc34)cc1)n2C
MEASURED_TARGET: ROCK2 (Homo sapiens (Human), UniProt O75116)
pIC50: 7.00 to 10.00
